ASSAYED TARGET: JNK2 (Homo sapiens, UniProt P45984)
Sequence (P45984 whole entry, species assumed): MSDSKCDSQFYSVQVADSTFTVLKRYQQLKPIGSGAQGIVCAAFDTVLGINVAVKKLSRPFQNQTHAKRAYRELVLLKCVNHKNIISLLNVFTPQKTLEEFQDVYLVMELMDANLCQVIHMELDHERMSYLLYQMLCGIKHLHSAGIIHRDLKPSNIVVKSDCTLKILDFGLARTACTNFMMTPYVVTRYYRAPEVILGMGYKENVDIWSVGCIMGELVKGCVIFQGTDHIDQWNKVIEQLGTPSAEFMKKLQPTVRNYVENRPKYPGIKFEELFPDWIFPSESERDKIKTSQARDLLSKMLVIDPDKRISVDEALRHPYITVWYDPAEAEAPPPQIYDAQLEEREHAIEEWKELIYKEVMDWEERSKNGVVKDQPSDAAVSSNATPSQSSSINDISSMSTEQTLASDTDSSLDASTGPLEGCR
pIC50: −log10 of the molar value.
REPORTED ENDPOINT: pIC50

* OCCC#Cc1nc(-c2ccc(F)cc2)c(-c2ccncc2)n1CCCc1ccccc1 [JNJ 3026582 (RWJ 67657)] | 7.10

----------
ASSAYED TARGET: p38a MAP kinase (Homo sapiens)
Sequence (Q16539 whole entry): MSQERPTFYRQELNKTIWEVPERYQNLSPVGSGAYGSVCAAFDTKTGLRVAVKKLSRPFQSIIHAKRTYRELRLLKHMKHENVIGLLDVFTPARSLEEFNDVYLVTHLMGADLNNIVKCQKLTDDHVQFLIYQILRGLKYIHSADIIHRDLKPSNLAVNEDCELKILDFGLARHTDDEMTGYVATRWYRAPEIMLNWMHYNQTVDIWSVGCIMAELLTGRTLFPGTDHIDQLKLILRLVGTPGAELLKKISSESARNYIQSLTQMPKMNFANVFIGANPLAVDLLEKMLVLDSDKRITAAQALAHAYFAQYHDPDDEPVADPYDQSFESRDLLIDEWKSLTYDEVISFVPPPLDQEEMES
REPORTED ENDPOINT: Kd (nM)

• OCCC#Cc1nc(-c2ccc(F)cc2)c(-c2ccncc2)n1CCCc1ccccc1 [JNJ 3026582 (RWJ 67657)] = 9

----------
Tested on: 6 CYP450
PROTOCOL NOTES: Inhibition of 6 CYP450
Type: in vitro ADME
REPORTED ENDPOINT: IC50

* C[C@@H]1CN(Cc2ccc(F)cc2)[C@@H](C)CN1C(=O)c1cc2c(C(=O)C(=O)N(C)C)cn(C)c2cc1Cl [SCIO-469 (SD 469)] | > 1 µM

Reference for the values: patent US20090162351A1
